Taken from the supplement of paper PMC12855868.

B1: library; numbered along this chain (parent)
chain: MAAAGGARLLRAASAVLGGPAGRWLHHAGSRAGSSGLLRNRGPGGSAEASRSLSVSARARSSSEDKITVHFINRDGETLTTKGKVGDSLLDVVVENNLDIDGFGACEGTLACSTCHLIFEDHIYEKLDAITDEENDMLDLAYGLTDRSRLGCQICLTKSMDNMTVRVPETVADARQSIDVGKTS

- Variants of: B1
- METHOD SUMMARY: scaled log2 fold change in cell abundance, elesclomol vs control (0 = silent mean, 1 = nonsense mean) (scaled log2 ratio); higher = higher viability under elesclomol (loss of FDX1 cuproptosis function);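 also: variant abundance is its share of total variant reads in each endpoint sample, from next-generation sequencing of the integrated ORF PCR-amplified out of genomic DNA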
- REPORTED CONDITIONS: with HEK293T FDX1 KO; elesclomol 40 nM; glucose 10 mM; 11 days
Items are presented alongside their recorded scaled log2 fold change.
When you answer, write just the number.

Task: Need scaled log2 fold change of "L90V" , thanks.
Result: -0.208

Task: Need scaled log2 fold change of "G33C" , thanks.
Result: 0.194

Task: Need scaled log2 fold change of "M163F" , thanks.
Result: -0.42
